Data provenance is Sander's compilation of Henry's law constants (doi:10.1016/j.chroma.2014.03.040).

Assay: Henry solubility constant Hcp at 298.15 K (mol/(m3 Pa))
Conditions: reference: Kim and Kim (2014)
Quick rule: Henry solubility constant Hcp of at least 0.04 means condition met, below that means condition not met.

Here's what some known entries look like.
Cc1ccc(C)cc1 [1,4-dimethylbenzene]: condition not met
CCCCOC(C)=O [butyl ethanoate]: condition not met

Form field: Henry solubility constant Hcp at least 0.04? Entry: Cc1ccccc1C [1,2-dimethylbenzene]
condition not met

In plain terms: is recorded Henry solubility constant Hcp at least 0.04 for Cc1ccccc1 [methylbenzene] ?
condition not met

Given the entry CCCC=O [butanal] , answer whether its Henry solubility constant Hcp meets or surpasses 0.04.
condition met

Test whether the compound CC(C)CO [2-methyl-1-propanol] records Henry solubility constant Hcp of 0.04 or higher.
condition met

Hello, I need to know if C=Cc1ccccc1 [ethenylbenzene] has measured Henry solubility constant Hcp not below 0.04. Thanks!
condition not met

* * *

Assay: Henry solubility constant Hcp at 298.15 K (mol/(m3 Pa))
Details: reference: Kim and Kim (2014)
recorded-endpoint: Henry solubility constant Hcp

Worked cases, Henry solubility constant Hcp given:
CCCCC=O: 0.039
CC(=O)CC(C)C: 0.039
c1ccccc1: 0.0017
Cc1cccc(C)c1: 0.0013

Item CC(C)CC=O has what recorded Henry solubility constant Hcp?
0.021
